# assay_procedure: qHTS assay to identify small molecule antagonists of the constitutive androstane receptor (CAR) signaling pathway - cell viability counter screen (AID 1224837); further: nearly all actives have a fitted effect of over 45% in size
# assay_setup: HepG2-CYP2B6-hCAR viability, CellTiter-Fluor, 23 h, co-treated with 50 nM CITCO; series mostly up to 92.4 µM
Inconclusive results are not listed. Calls of active or inactive are those of the source. The call rests on the fitted dose curve; in most records, active means well fitted cell-killing curve with a large enough effect in the repeat runs; inconclusive means weak or mixed curves, or effect the other way; inactive means flat fitted curve, though single readings scatter.
# output must be one of active, inactive

What did this assay record as the result for `CN(C)CCc1c[nH]c2ccc(O)cc12` ?
inactive

Tell me the recorded outcome of this test for `CC(=O)[O-].[Tl+]` .
inactive

Write down the call the test reported for this compound. Item: `CCOC(=O)CC(=O)CCl`
inactive

Record lookup: outcome of this test for CC(Cc1ccc(C(C)(C)C)cc1)CN1C[C@@H](C)O[C@@H](C)C1 (some centres undefined) ?
inactive

// return assay outcome for COc1ccc(OC)c(CC(C)N)c1 (centres undefined)
inactive

Can you look up the reported call for `CCCCCCCCCCBr` for me?
inactive

Check the results log: what was the call for COc1cc(N)c(Cl)cc1C(=O)NC1CN2CCC1CC2 (centres undefined) ?
inactive

Assay result, entry `ClCc1ccc(Cl)cc1Cl` — outcome?
inactive

Call for entry `CC(C)CCCCCOC(=O)c1ccccc1C(=O)OCCCCCC(C)C` :
inactive

How did this test come out for `CCN(CC)C(=S)[S-].CCN(CC)C(=S)[S-].[Zn+2]` ?
active

Can you look up the reported call for CC1(C)CC/C(=C/c2ccc(Cl)cc2)C1(O)Cn1cncn1 (centres undefined) for me?
active

Check the results log: what was the call for `BrCBr` ?
inactive

So what was the verdict on CC(C)[C@H](C(=O)OC(C#N)c1cccc(Oc2ccccc2)c1)c1ccc(OC(F)F)cc1 (some centres undefined) in this test?
inactive

Hello, I am checking results. What call was entered for `NC(=O)CCl` ?
inactive
